- ASSAYED_SYSTEM: recombinant human BCMA-his protein (Acro biosystems, Cat #BCA-H522Y) (human) (UniProt Q02223)
- Sequence (Q02223 1-54, stated change not applied): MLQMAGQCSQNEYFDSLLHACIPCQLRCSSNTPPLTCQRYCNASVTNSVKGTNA
- PROTOCOL_NOTES: BLI Octet RED96, antibody on AHC sensor, BCMA-his in solution
VALUE_KIND: kon (M⁻¹ s⁻¹)
One number for each entry, in M⁻¹ s⁻¹.

- huB1H2-V22 (antibody, human IgG1, kappa, V domains shown) VH: QVQLVQSGAEVKKPGASVKVSCKASGYTLTNYVMHWVRQAPGQGLEWIGFIIPFNDGTKYNEHFKGRVTITSDTSISTAYMQLSSLRSEDTAVYYCARYDFEGYFDVWGQGTLVTVSS VL: DIQMTQSPSSLSASVGDRVTITCSASQDITNFLNWYQQKPGKAPKLLIYSTSRLHSGVPSRFSGSGSGTDYTLTISSLQPEDIATYYCQQYSNLPWTFGQGTKVEIKR: 229000

Let's switch to this binder now.
Consider the binder shown here: huB1H2-V4 (antibody, human IgG1, kappa, V domains shown) VH: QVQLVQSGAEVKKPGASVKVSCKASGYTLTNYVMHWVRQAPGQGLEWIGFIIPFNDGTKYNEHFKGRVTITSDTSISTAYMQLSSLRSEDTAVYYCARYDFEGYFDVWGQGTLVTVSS VL: DIQMTQSPSSLSASVGDRVTITCSASQDITNFLNWYQQKPGKTVKLLIYSTSRLHSGVPSRFSGSGSGTDYTFTISSLQPEDIATYYCQQYSNLPWTFGQGTKVEIKR What is its recorded kon?
1.08e+06
